Provenance of the data: patent US9693556B2

// values below are reported POST Application SETFA herbicidal damage (five point scale)
# System: Setaria faberi (SETFA)
# PROCEDURE_SUMMARY: Post-emergence herbicidal glasshouse test on Setaria faberi
# Type: in vivo
# TEST_SETTINGS: post-emergence; 1000 g/h; evaluated after 13 days

INPUT_SMILES: CS(=O)(=O)c1ccc(-c2cn[nH]c(=O)c2O)c(Cl)c1C1=NOCC1
ENDPOINT_RESULT: 5 (5=80-100% damage)

Value of POST Application SETFA herbicidal damage (five point scale) reported for the compound "Cc1c(Cl)cccc1-c1c(C(F)(F)F)ccn(-c2cnn(C)c(=O)c2O)c1=O" is 5 (5=80-100% damage)

So for "CC(=O)Oc1c(-c2ccc(C(F)(F)F)cc2S(C)(=O)=O)cnn(C)c1=O" , the logged POST Application SETFA herbicidal damage (five point scale) turned out to be 5 (5=80-100% damage)

According to the records, this compound "Cc1cc(C)c2cc(-c3cnn(C)c(=O)c3O)c(C(F)(F)F)nc2n1" displays POST Application SETFA herbicidal damage (five point scale) of 2 (2=20-39% damage)
